Ki for P2X purinoceptor 7 (Homo sapiens) - collated from the literature.
Use nM as the unit, but write only the number.

Please review the entries below; each comes with its answer.
Cc1cnc(-c2nnc3n2C[C@H](C)n2c(-c4cccc(C(F)(F)F)c4Cl)nnc2-3)cn1    63.1
COc1cccnc1-n1nnc2c1CCN(C(=O)c1cccc(C(F)(F)F)c1Cl)C2C (stereo not shown)    35.5
CN(C)C(=O)C1c2ncn(-c3ccccn3)c2CCN1C(=O)c1cccc(C(F)(F)F)c1Cl (stereo not shown)    631

Task: Fill in the blank: the reported Ki of C[C@H]1Cn2c(nnc2-c2ccccn2)C(=O)N1Cc1cccc(C(F)(F)F)c1Cl is ____.
Output: 5

---

pKi for UniProt Q99572 - collated from the literature.
The quantity pKi is defined as the negative base-10 logarithm of the molar concentration.

C[C@H]1c2nnn(-c3ccccn3)c2CCN1C(=O)c1ccc(F)c(Cl)c1Cl (single isomer, unassigned)    8.00
C[C@H]1Cn2c(-c3cc[nH]n3)nnc2-c2nnc(-c3cccc(C(F)(F)F)c3Cl)n21    7.65
C[C@H]1Cn2c(nnc2-c2ccco2)CN1C(=O)c1cccc(C(F)(F)F)c1Cl    7.66
Cc1nnc2n1CCN(C(=O)c1cccc(C(F)(F)F)c1Cl)[C@H]2c1ccccc1    8.10
O=C(c1cccc(C(F)(F)F)c1Cl)N1CCc2c(nnn2-c2cnccn2)C1c1ccccc1 (stereo not shown)    6.40

Task: Query the reported pKi for UniProt Q99572; item: O=C(c1cccc(C(F)(F)F)c1F)N1CCn2c(nnc2C(F)(F)F)[C@H]1c1ccccc1
Output: 7.30

Task: Query the reported pKi for UniProt Q99572; item: O=C(c1cccc(C(F)(F)F)c1Cl)N1C=Cc2c(nnn2-c2ccccn2)C1
Output: 7.53

Task: Query the reported pKi for UniProt Q99572; item: Cc1ccc(-n2nnc3c2CCN(C(=O)c2cccc(Cl)c2Cl)C3C)nc1 (stereo not shown)
Output: 6.43

Task: Query the reported pKi for UniProt Q99572; item: C[C@@H]1Cc2c(nnn2-c2cc(F)ccn2)CN1C(=O)c1cccc(C(F)(F)F)c1Cl (single isomer, unassigned)
Output: 6.20

Task: Query the reported pKi for UniProt Q99572; item: Cc1nc2c(c(-c3ccn[nH]3)n1)C[C@H](C)N(C(=O)c1ccc(Cl)cc1F)C2 (single isomer, unassigned)
Output: 8.11

Task: Query the reported pKi for UniProt Q99572; item: C[C@H]1Cn2c(-c3ncccn3)nnc2-c2nnc(-c3cccc(C(F)(F)F)c3Cl)n21
Output: 8.40

Task: Query the reported pKi for UniProt Q99572; item: CC1c2ncn(-c3ncccc3F)c2CCN1C(=O)c1cccc(C(F)(F)F)c1Cl (stereo not shown)
Output: 6.90

Task: Query the reported pKi for UniProt Q99572; item: O=C1c2nnc(-c3cnccn3)n2CCN1Cc1cccc(C(F)(F)F)c1Cl
Output: 8.20

Task: Query the reported pKi for UniProt Q99572; item: C[C@H]1Cn2c(-c3ccc(Cl)cn3)nnc2-c2nnc(-c3cccc(C(F)(F)F)c3Cl)n21
Output: 7.60

Task: Query the reported pKi for UniProt Q99572; item: C[C@H]1Cn2c(-c3cnccn3)nnc2-c2nnc(-c3cccc(C(F)(F)F)c3Cl)n21
Output: 8.10

Task: Query the reported pKi for UniProt Q99572; item: O=C(c1cccc(C(F)(F)F)c1Cl)N1CCn2c(-c3ccco3)nnc2C1c1ccccc1 (racemic)
Output: 7.00

---

pKi for P2X purinoceptor 7 (Homo sapiens) - collated from the literature.
The quantity pKi is defined as the negative base-10 logarithm of the molar concentration.

Please review the entries below; each comes with its answer.
O=C(c1cccc(C(F)(F)F)c1Cl)N1CCc2c(nnn2-c2ccccc2)C1    7.41
CCOC(=O)C1c2ncn(-c3ccccc3)c2CCN1C(=O)c1cccc(C(F)(F)F)c1Cl (stereo not shown)    7.07
C[C@H]1Cn2c(nnc2-c2cnccn2)C(=O)N1Cc1cccc(C(F)(F)F)c1    8.30

Field: next compound
Task: Query the reported pKi for P2X purinoceptor 7 (Homo sapiens); item: Cc1nnc2n1CCN(C(=O)c1cccc(C(F)(F)F)c1Cl)C2c1ccccn1 (racemic)
Output: 7.40

---

Ki for P2X purinoceptor 7 (Homo sapiens, UniProt Q99572) - collated from the literature.
Use nM as the unit, but write only the number.

Please review the entries below; each comes with its answer.
CCOC(=O)C1c2ncn(-c3ccccn3)c2CCN1C(=O)c1cccc(Cl)c1Cl (stereo not drawn)    74.1
COc1ccnc(-c2nnc3n2C[C@H](C)n2c(-c4ccc(Cl)cc4Cl)nnc2-3)c1    6.3
CC1CN(C(=O)c2cccc(C(F)(F)F)c2Cl)Cc2nnn(-c3ccccc3)c21 (stereo not drawn)    100
Cc1nnc2n1CCN(C(=O)c1cccc(C(F)(F)F)c1Cl)[C@@H]2c1ccccn1    31.6
C[C@H]1c2nnn(-c3ccn(C)n3)c2CCN1C(=O)c1cccc(C(F)(F)F)c1Cl (single isomer, unassigned)    20
O=C(c1cccc(C(F)(F)F)c1Cl)N1CCc2c(-c3cnccn3)n[nH]c2C1    20

Task: Query the reported Ki for P2X purinoceptor 7 (Homo sapiens, UniProt Q99572); item: O=C(c1cccc(C(F)(F)F)c1Cl)N1CCc2c(-c3ccc(F)cc3)n[nH]c2C1
Output: 182

Task: Query the reported Ki for P2X purinoceptor 7 (Homo sapiens, UniProt Q99572); item: C[C@H]1Cn2c(nnc2-c2cncc(F)c2)C(=O)N1Cc1cccc(C(F)(F)F)c1Cl
Output: 6.3

Task: Query the reported Ki for P2X purinoceptor 7 (Homo sapiens, UniProt Q99572); item: CC1Cc2c(nnn2-c2cc(F)ccn2)CN1C(=O)c1cccc(C(F)(F)F)c1Cl (stereo not drawn)
Output: 31.6

---

pKi for P2X purinoceptor 7 (Homo sapiens) - collated from the literature.
The quantity pKi is defined as the negative base-10 logarithm of the molar concentration.

CC1c2nnn(-c3cnccn3)c2CCN1C(=O)c1cccc(C(F)(F)F)c1F (centres unmarked)    7.74
CC1c2nnc(-c3ccc(Cl)cc3)n2CCN1C(=O)c1cccc(C(F)(F)F)c1Cl (centres unmarked)    6.60

Task: Fill in the blank: the reported pKi of O=C(c1cccc(Cl)c1Cl)N1CCn2c(nnc2C(F)(F)F)[C@H]1c1ccccc1 is ____.
Output: 8.00

Task: Fill in the blank: the reported pKi of C[C@H]1Cc2c(nnn2-c2ncccn2)CN1C(=O)c1cccc(C(F)(F)F)c1Cl (single isomer, unassigned) is ____.
Output: 7.60

Task: Fill in the blank: the reported pKi of CC1c2nnn(-c3cnccn3)c2CCN1C(=O)c1ccc(Cl)cc1F (centres unmarked) is ____.
Output: 7.38

Task: Fill in the blank: the reported pKi of Cc1ccc(-c2nnc3n2C[C@H](C)n2c(-c4cccc(C(F)(F)F)c4Cl)nnc2-3)s1 is ____.
Output: 7.80

Task: Fill in the blank: the reported pKi of C[C@H]1Cn2c(nnc2-c2cccnc2)C(=O)N1Cc1cccc(C(F)(F)F)c1Cl is ____.
Output: 8.40

Task: Fill in the blank: the reported pKi of O=C(c1cccc(Cl)c1Cl)N1CCn2c(nnc2C(F)(F)F)C1c1ccccc1 (racemic) is ____.
Output: 7.70

Task: Fill in the blank: the reported pKi of CCc1nc2c(n1-c1ccccc1)CCN(C(=O)c1cccc(Cl)c1Cl)C2 is ____.
Output: 6.20

---

pKi for P2X purinoceptor 7 (Homo sapiens) - collated from the literature.
The quantity pKi is defined as the negative base-10 logarithm of the molar concentration.

Please review the entries below; each comes with its answer.
O=C(c1cccc(Cl)c1Cl)N1CCc2c(nc(C(F)(F)F)n2-c2ccccc2)C1    6.90
O=C(c1cccc(Cl)c1Cl)N1CCc2c(nnn2-c2cnccn2)C1    7.90
O=C(c1cccc(C(F)(F)F)c1Cl)N1CCn2c(-c3ccco3)nnc2[C@@H]1c1ccccc1    7.70

Task: Fill in the blank: the reported pKi of C[C@H]1Cn2c(-c3cc(C(F)(F)F)ccn3)nnc2-c2nnc(-c3cccc(C(F)(F)F)c3Cl)n21 is ____.
Output: 7.85

Task: Fill in the blank: the reported pKi of Cc1c(C(=O)N2CCn3c(C)nnc3[C@@H]2c2ccc(F)cc2)cccc1C(F)(F)F is ____.
Output: 7.70

Task: Fill in the blank: the reported pKi of Cc1cncc(-n2nnc3c2CCN(C(=O)c2cccc(C(F)(F)F)c2Cl)C3C)n1 (stereo not shown) is ____.
Output: 6.84

---

pKi: −log10 of the molar value.
pKi for P2X purinoceptor 7 (Homo sapiens) - collated from the literature.
# pKi >= 8 gives class 1, anything below gives class 0

C[C@H]1Cn2c(-c3cnco3)nnc2-c2nnc(-c3cccc(C(F)(F)F)c3Cl)n21    class 0
CC1CN(C(=O)c2cccc(C(F)(F)F)c2Cl)Cc2nnn(-c3ccc(F)cc3)c21 (centres unmarked)    class 0
Cc1nnc2n1CCN(C(=O)c1cccc(C(F)(F)F)c1Cl)[C@@H]2c1ccccc1    class 0

Task: Would you say O=C1c2nnc(-c3ccc(F)cc3)n2CCN1Cc1cccc(C(F)(F)F)c1Cl shows pKi at minimum 8?
Output: class 0

Task: Would you say C[C@H]1Cn2c(nnc2-c2ccn(C)n2)C(=O)N1Cc1cccc(C(F)(F)F)c1Cl shows pKi at minimum 8?
Output: class 1
